- Target under test: c-Met (cytoplasmic domain) (Homo sapiens, UniProt P08581)
- Construct: 10 ng/mL c-Met (cytoplasmic domain, Invitrogen Corporation #PV3143); purchased Invitrogen Corporation PV3143
- Sequence (P08581 956-1390 limits assumed): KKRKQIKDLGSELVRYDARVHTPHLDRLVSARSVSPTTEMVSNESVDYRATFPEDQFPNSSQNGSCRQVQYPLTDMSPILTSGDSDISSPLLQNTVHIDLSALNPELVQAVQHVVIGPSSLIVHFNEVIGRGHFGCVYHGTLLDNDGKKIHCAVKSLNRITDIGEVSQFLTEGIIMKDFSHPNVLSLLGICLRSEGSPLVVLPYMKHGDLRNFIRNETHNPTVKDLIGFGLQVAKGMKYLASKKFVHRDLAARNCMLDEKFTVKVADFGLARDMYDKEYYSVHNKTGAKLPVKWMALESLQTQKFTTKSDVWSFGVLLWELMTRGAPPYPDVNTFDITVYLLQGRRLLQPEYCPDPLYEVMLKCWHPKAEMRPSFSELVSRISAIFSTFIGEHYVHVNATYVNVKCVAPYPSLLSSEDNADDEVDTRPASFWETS
- Assay protocol: c-Met Kinase Assay (same methods as for ALK, with modifications)
- Type: biochemical
- Experimental context: c-Met kinase inhibition, 1 μM ATP; read-out: cMet Activity
pIC50: −log10 of the molar value.
Result type: pIC50

Query COCCN1CCc2ccc(Nc3ncc(Cl)c(Nc4c(F)cccc4C(=O)NCC4CC4)n3)cc2CC1 [Example 1711] yields pIC50 of 5.00 to 6.00

----------
- Target under test: baculovirus-expressed ALK (Homo sapiens)
- Construct: host or cells: baculovirus expression system
- Assay protocol: ALK Kinase Assay (ELISA-type, time-resolved fluorescence)
- Assay type: biochemical
- Experimental context: 1 μM ATP (Km level), 30 ng/ml ALK, 37° C., 15 minutes; read-out: ALK Activity (ALK kinase inhibition, IC50 class)
Result type: IC50

// solved cases for IC50 follow
{"columns": ["Compound", "Target under test", "Readout value"],
 "data": [
  ["CCN1C(=O)C(NC(=O)C(F)(F)F)CCc2c1ccc(Nc1ncc(Cl)c(N[C@@H]3CCCC[C@H]3NS(C)(=O)=O)n1)c2OC (stereo partly shown) [Example 1335]", "baculovirus-expressed ALK (Homo sapiens)", "< 0.1 µM"],
  ["CCCCNC(=O)c1ccccc1Nc1nc(Nc2cc3c(cc2OC)CCN(CCOC)CC3)ncc1Cl [Example 1031]", "baculovirus-expressed ALK (Homo sapiens)", "< 0.1 µM"],
  ["CNC(=O)c1ccccc1Nc1nc(Nc2cc3c(cc2OC)CCC(NCCO)CC3)ncc1Cl (stereo not shown) [Example 1092]", "baculovirus-expressed ALK (Homo sapiens)", "< 0.1 µM"]
]}

So, CNC(=O)c1cccc(F)c1Nc1nc(Nc2ccc3c(c2)C(=O)NCCO3)ncc1Cl [Example 1222] ? Its IC50 was 0.1 to 1 µM

Kindly note the recorded IC50 for COc1cc2c(cc1Nc1ncc(Cl)c(Nc3ccc(N(C)C)cc3OC)n1)CCN(CC(=O)N(C)C)CC2 [Example 1166] , which is < 0.1 µM

According to the records, this compound CNC(=O)c1cc(-c2ccc(C#N)cc2)cc(F)c1Nc1nc(Nc2ccc3c(c2)NC(=O)CCC3)ncc1Cl [Example 1420] displays IC50 of < 0.1 µM

So, CNC(=O)c1cccc(F)c1Nc1nc(Nc2ccc3c(c2)OCCCN3C(=O)OC)ncc1Cl [Example 1431] ? Its IC50 was 0.1 to 1 µM

----------
pIC50 reference
- Target under test: baculovirus-expressed ALK (Homo sapiens, UniProt Q9UM73)
- Construct: host or cells: baculovirus expression system
- Sequence (Q9UM73 19-1620): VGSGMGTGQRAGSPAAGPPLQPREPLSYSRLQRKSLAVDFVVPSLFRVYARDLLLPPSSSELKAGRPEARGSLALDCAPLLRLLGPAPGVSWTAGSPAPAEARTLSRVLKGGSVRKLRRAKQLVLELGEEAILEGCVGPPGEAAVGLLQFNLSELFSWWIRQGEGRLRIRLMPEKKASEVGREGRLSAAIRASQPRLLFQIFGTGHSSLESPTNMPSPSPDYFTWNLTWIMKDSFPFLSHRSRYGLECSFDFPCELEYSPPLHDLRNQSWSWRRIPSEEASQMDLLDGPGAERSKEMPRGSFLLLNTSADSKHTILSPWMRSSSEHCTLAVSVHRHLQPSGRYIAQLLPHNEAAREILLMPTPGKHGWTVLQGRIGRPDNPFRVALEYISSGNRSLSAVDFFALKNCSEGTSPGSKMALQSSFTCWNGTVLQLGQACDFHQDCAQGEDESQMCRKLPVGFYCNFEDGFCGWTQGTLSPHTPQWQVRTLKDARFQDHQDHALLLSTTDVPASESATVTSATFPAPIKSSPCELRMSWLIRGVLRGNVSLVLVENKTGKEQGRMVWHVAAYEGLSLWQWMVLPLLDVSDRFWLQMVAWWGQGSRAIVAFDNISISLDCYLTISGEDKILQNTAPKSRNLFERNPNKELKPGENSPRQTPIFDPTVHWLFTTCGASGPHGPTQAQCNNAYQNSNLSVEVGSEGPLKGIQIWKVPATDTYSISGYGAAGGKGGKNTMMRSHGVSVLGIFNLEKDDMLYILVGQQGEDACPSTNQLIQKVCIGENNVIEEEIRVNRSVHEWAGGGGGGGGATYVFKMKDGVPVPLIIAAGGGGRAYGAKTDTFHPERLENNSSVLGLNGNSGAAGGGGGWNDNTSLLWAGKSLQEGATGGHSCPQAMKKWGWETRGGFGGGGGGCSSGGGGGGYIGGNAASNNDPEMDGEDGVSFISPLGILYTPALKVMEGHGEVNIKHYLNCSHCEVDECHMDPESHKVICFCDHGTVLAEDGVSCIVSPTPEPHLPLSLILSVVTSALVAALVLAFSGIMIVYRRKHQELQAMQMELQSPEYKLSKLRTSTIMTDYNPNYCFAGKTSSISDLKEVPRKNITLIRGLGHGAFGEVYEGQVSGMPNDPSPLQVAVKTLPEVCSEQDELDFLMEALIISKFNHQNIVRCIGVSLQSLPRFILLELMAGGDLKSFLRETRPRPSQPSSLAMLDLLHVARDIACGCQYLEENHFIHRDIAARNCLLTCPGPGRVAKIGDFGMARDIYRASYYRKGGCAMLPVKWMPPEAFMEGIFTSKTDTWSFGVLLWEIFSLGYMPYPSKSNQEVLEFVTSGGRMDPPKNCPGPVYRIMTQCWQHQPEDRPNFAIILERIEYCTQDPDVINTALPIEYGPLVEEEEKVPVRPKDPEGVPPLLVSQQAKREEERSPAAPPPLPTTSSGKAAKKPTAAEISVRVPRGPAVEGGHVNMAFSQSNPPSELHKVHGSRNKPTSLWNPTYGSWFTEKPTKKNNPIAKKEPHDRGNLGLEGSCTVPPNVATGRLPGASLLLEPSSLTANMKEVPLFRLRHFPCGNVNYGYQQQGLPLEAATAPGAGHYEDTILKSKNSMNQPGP
- Assay protocol: ALK Kinase Assay (ELISA-type, time-resolved fluorescence)
- Type: biochemical
- Experimental context: ALK kinase inhibition, 1 μM ATP (Km level); read-out: ALK Activity
pIC50: −log10 of the molar value.

{"columns": ["Compound", "Target under test", "pIC50"],
 "data": [
  ["CCN1CCc2ccc(Nc3ncc(Br)c(Nc4ccccc4C(=O)NC)n3)cc2CC1", "baculovirus-expressed ALK (Homo sapiens, UniProt Q9UM73)", "> 7.00"],
  ["COCCN1CCc2cc(Nc3ncc(Cl)c(NC4C5C=CC(C5)C4C(N)=O)n3)c(OC)cc2CC1 (stereo not shown)", "baculovirus-expressed ALK (Homo sapiens, UniProt Q9UM73)", "> 7.00"],
  ["CNC(=O)c1ccccc1Nc1nc(Nc2ccc3c(c2Br)C2CCC3CN(C(=O)C(F)(F)F)C2)ncc1Cl (stereo not shown)", "baculovirus-expressed ALK (Homo sapiens, UniProt Q9UM73)", "6.00 to 7.00"]
]}

Kindly consider the entry below.
What the record says about C#CCN1C2CCC1c1cc(Nc3ncc(Cl)c(Nc4ccccc4C(=O)NC)n3)ccc1C2 (stereo not shown) : pIC50 is > 7.00

----------
- Target under test: baculovirus-expressed ALK (Homo sapiens)
- Construct: host or cells: baculovirus expression system
- Assay protocol: ALK Kinase Assay (ELISA-type, time-resolved fluorescence)
- Type: biochemical
- Experimental context: ALK kinase inhibition, 1 μM ATP; read-out: ALK Activity
pIC50: −log10 of the molar value.
Result type: pIC50

Worked examples, 5 compounds total:
{"columns": ["Compound", "Result type", "Readout value"],
 "data": [
  ["COc1cc2c(cc1Nc1ncc(Cl)c(N[C@H]3[C@@H](C(N)=O)[C@@H]4C=C[C@H]3C4)n1)CCN(CC(C)(C)O)CC2 [Example 1560]", "pIC50", "> 7.00"],
  ["CNC(=O)c1sccc1Nc1nc(Nc2ccc3c(c2)N(C(=O)CN2CCCC2)CCCO3)ncc1Cl [Example 1705]", "pIC50", "6.00 to 7.00"],
  ["CCN1C(=O)C(NC(=O)CN(C)C)CCc2ccc(Nc3ncc(Cl)c(Nc4c(F)cccc4C(=O)NC)n3)cc21 (stereo not shown) [Example 1496]", "pIC50", "6.00 to 7.00"],
  ["COc1cc(N2CCOCC2)ccc1Nc1nc(Nc2ccc3c(c2)N(C(C)=O)CCCC3(C)C)ncc1Cl [Example 1598]", "pIC50", "6.00 to 7.00"],
  ["COc1cc2c(cc1Nc1ncc(Cl)c(Nc3ccccc3S(=O)(=O)N(C)C)n1)CCN(CCOP(=O)(O)O)CC2 [Example 1545]", "pIC50", "> 7.00"]
]}

Hey, baculovirus-expressed ALK (Homo sapiens) data for COc1cc(N2CCOCC2)ccc1Nc1nc(Nc2ccc3c(c2)C(C)(C)CCC(=O)N3C)ncc1Cl [Example 1573] : pIC50 came out at > 7.00

Reported pIC50 (baculovirus-expressed ALK (Homo sapiens)) for entry CNC(=O)c1cccc(F)c1Nc1nc(Nc2ccc3c(c2)-n2c(C)cnc2CCC3)ncc1Cl [Example 1843] is 6.00 to 7.00

----------
Quick reference for pIC50 among some compounds
- Target under test: c-Met (cytoplasmic domain) (Homo sapiens, UniProt P08581)
- Construct: 10 ng/mL c-Met (cytoplasmic domain, Invitrogen Corporation #PV3143); purchased Invitrogen Corporation PV3143
- Assay protocol: c-Met Kinase Assay (same methods as for ALK, with modifications)
- Assay type: biochemical
- Experimental context: c-Met kinase inhibition, 1 μM ATP (Km level); read-out: cMet Activity
pIC50: −log10 of the molar value.

Sample answers from the record:
{"columns": ["Compound", "Target under test", "pIC50"],
 "data": [
  ["CCN1C(=O)OCCc2ccc(Nc3ncc(Cl)c(Nc4ccsc4C(=O)NC)n3)cc21 [Example 1883]", "c-Met (cytoplasmic domain) (Homo sapiens, UniProt P08581)", "> 7.00"],
  ["CNC(=O)c1ccccc1Nc1nc(Nc2ccc3c(c2)C2CNCC3O2)ncc1Cl (stereo not drawn) [Example 65]", "c-Met (cytoplasmic domain) (Homo sapiens, UniProt P08581)", "6.00 to 7.00"],
  ["CCN1CCN(CC)c2cc(Nc3ncc(Cl)c(N[C@@H]4CCCC[C@H]4NS(C)(=O)=O)n3)ccc2C1 [Example 426]", "c-Met (cytoplasmic domain) (Homo sapiens, UniProt P08581)", "6.00 to 7.00"]
]}

The compound listed as CO[C@@H](CN1CCc2ccc(Nc3ncc(Cl)c(N[C@@H]4CCCC[C@H]4NS(C)(=O)=O)n3)cc2CC1)C(F)(F)F [Example 336] has a reported pIC50 of 6.00 to 7.00

Entry COc1cc2c(cc1Nc1ncc(Cl)c(N[C@@H]3CCCC[C@H]3NS(C)(=O)=O)n1)N(C)CCN(C[C@@H](O)C(F)(F)F)C2 [Example 492] — recorded pIC50 = < 5.00

Value of measured pIC50 for the entry COc1cc2c(cc1Nc1ncc(Cl)c(Nc3ccc(N4CCOCC4)cc3OC)n1)CCN(C[C@H](O)C(F)(F)F)CC2 [Example 462] : < 5.00

----------
- Target under test: c-Met (cytoplasmic domain) (Homo sapiens, UniProt P08581)
- Construct: 10 ng/mL c-Met (cytoplasmic domain, Invitrogen Corporation #PV3143); purchased Invitrogen Corporation PV3143
- Assay protocol: c-Met Kinase Assay (same methods as for ALK, with modifications)
- Format: biochemical
- Experimental context: c-Met kinase inhibition, 1 μM ATP (Km level); read-out: cMet Activity
pIC50: −log10 of the molar value.
Result type: pIC50

Some compounds with known pIC50 results, for comparison:
{"columns": ["Compound", "pIC50"],
 "data": [
  ["CCN1CC2CC(C1)c1cc(Nc3ncc(Cl)c(Nc4ccccc4S(=O)(=O)NC)n3)ccc12 (stereo not shown) [Example 157]", "5.00 to 6.00"],
  ["C#CCN1CC2CCC(C1)c1cc(Nc3ncc(Cl)c(Nc4ccccc4S(=O)(=O)NC)n3)ccc12 (stereo not shown) [Example 287]", "6.00 to 7.00"],
  ["CCN1CCN(CC)c2cc(Nc3ncc(Cl)c(N[C@@H]4CCCC[C@H]4NS(C)(=O)=O)n3)ccc2C1=O [Example 424]", "5.00 to 6.00"],
  ["CNC(=O)c1ccccc1Nc1nc(Nc2ccc3c(c2)C2CCC3CN(CCF)C2)ncc1Cl (stereo not shown) [Example 280]", "> 7.00"],
  ["CNC(=O)c1cccc(F)c1Nc1nc(Nc2ccc3c(c2)N(C(C)=O)CC(=O)NC3)ncc1Cl [Example 1877]", "> 7.00"]
]}

Reported pIC50 for COCCN1CCc2ccc(Nc3ncc(Cl)c(NCC(C)NS(C)(=O)=O)n3)cc2CC1 (stereo not shown) [Example 301] was 5.00 to 6.00

Measured pIC50, CCNC(=O)c1ccccc1Nc1nc(Nc2ccc3c(c2)C(C)(C)CCC(=O)N3)ncc1Cl [Example 339] : > 7.00

Notebook: COCCN1CCN(C)c2cc(Nc3ncc(Cl)c(N[C@@H]4CCCC[C@H]4NS(C)(=O)=O)n3)c(OC)cc2C1 [Example 490] , pIC50 read as < 5.00

Kindly note the recorded pIC50 for COCCN1CCc2ccc(Nc3ncc(Cl)c(NC(C)CNS(C)(=O)=O)n3)cc2CC1 (stereo not shown) [Example 303] , which is 5.00 to 6.00

Reported pIC50 ( COc1cc(N2CCOCC2)ccc1Nc1nc(Nc2ccc3c(c2)CCN(C[C@H](OC)C(F)(F)F)CC3)ncc1Cl [Example 337] ) = < 5.00

The reported measurements were obtained from patent US8148391B2.
